Just for reference, the supplement of paper PMC13380429 is where these values come from.

- Test system: Calu-3
- PROCEDURE SUMMARY: cell viability relative to DMSO; higher = less toxic
- CONDITIONS: 72 h; 10 nM
MEASUREMENT TYPE: cell viability (%)
Unit % implied. Number only.

C[C@H](NCc1ccc(OCc2ccccc2F)cc1)C(N)=O [priralfinamide]    95.2
CCNC(C)CN1CCc2c(c(=O)oc3ccccc23)C1 (configuration not stated)    109
CC(C)N(CCc1c[nH]c2ccccc12)C(C)C    95.4
CCOC(=O)C1=C(C)NC(=S)NC1c1cccc(O)c1 (configuration not stated)    95.1
O=C(O)/C=C/c1ccc(O)c(O)c1    111

Q: Give its cell viability value. Item: "CC(C)C[C@H](NC(=O)[C@H](CCCCN)NC(=O)[C@H](CCCNC(=N)N)NC(=O)[C@H](C)NC(=O)[C@H](CO)NC(=O)[C@H](CCCCN)NC(=O)[C@H](CCCNC(=N)N)NC(=O)[C@H](C)NC(=O)CNC(=O)[C@@H](NC(=O)[C@H](Cc1ccccc1)NC(=O)CNC(=O)CNC(=O)[C@@H](N)Cc1ccccc1)[C@@H](C)O)C(=O)N[C@@H](C)C(=O)N[C@@H](CC(N)=O)C(=O)N[C@@H](CCC(N)=O)C(=O)O"
Result: 107

Q: Give its cell viability value. Item: CCCCCCCCC(=O)NCc1cc(OC)c(O)cc1I [6-iodo-nordihydrocapsaicin]
Result: 98.6

Q: Give its cell viability value. Item: "NCC(=O)CCC(=O)O"
Result: 104

Q: Give its cell viability value. Item: "NC[C@H]1O[C@H](O[C@H]2[C@H](O)[C@@H](O[C@H]3O[C@H](CO)[C@@H](O)[C@H](N)[C@H]3O)[C@H](N)C[C@@H]2N)[C@H](N)[C@@H](O)[C@@H]1O"
Result: 93

----------
- Tested on: Caco-2
- PROCEDURE SUMMARY: cell viability relative to DMSO; higher = less toxic
- CONDITIONS: 72 h; 1 nM
Each item that follows carries a reported cell viability.
Unit % implied. Number only.

A selection of reference data follows.
O=C(O)c1ccc2cc(-c3ccc(O)c(C45CC6CC(CC(C6)C4)C5)c3)ccc2c1    99.4
CCCCN1CCCC1CNC(=O)c1cc(C#N)c2ccccc2c1OC (stereo not drawn) [nafadotride]    98.8

// next item, cell viability requested
Q: Give its cell viability value. Item: "CCN(CC)Cc1nccn1-c1ccc([N+](=O)[O-])cc1C(=O)c1ccccc1Cl"
Result: 124

----------
- System: U2OS
- PROCEDURE SUMMARY: relative viability EC50 (midpoint between 100% and the lowest measured viability); higher = less toxic
- CONDITIONS: 72 h
MEASUREMENT TYPE: relative viability EC50

A selection of reference data follows.
O=C(/C=C/c1ccc(O)c(O)c1)c1ccc(O)cc1O    > 10 µM
CCNC(C)CN1CCc2c(c(=O)oc3ccccc23)C1 (stereo not drawn)    > 10 µM

// next item, relative viability EC50 requested
Q: Give its relative viability EC50 value. Item: "CS(=O)(=O)OCOS(C)(=O)=O"
Result: > 10 µM

----------
- Tested on: HepG2
- PROCEDURE SUMMARY: cell viability relative to DMSO; higher = less toxic
- CONDITIONS: 72 h; 1 nM
Each item that follows carries a reported cell viability.
Unit % implied. Number only.

O=C1CCC[C@@H]2[C@H]3CCC[N+]4([O-])CCC[C@@H](CN12)[C@@H]34 (stereo partly specified)    104
NCCNc1ccc(NCCN)c2c1C(=O)c1ccncc1C2=O    100

// next item, cell viability requested
Q: Give its cell viability value. Item: "Cc1cccc(C)c1NC(=O)CN1CCCC1=O"
Result: 102

----------
Each item that follows carries a reported cell viability.
- Test system: Calu-3
- PROCEDURE SUMMARY: cell viability relative to DMSO; higher = less toxic
- CONDITIONS: 72 h; 100 nM
Unit % implied. Number only.

CC/C=C\C/C=C\C/C=C\C/C=C\C/C=C\C/C=C\CCC(=O)OCC [doconexent-ethyl-ester]    104
O=C1Nc2cc(Cl)c(Cl)cc2N2CCNC[C@H]12    97.3
CCOC(=O)[C@@H](N)Cc1ccc(O)c(O)c1 [etilevodopa]    92.2
CC(=O)N[C@@H](CSC/C=C(\C)CC/C=C(\C)CCC=C(C)C)C(=O)O [acetyl-farnesyl-cysteine]    86.6
C[C@@H](NC(=O)[C@@H](N)Cc1ccc(O)cc1)C(=O)NCC(=O)N(C)[C@@H](Cc1ccccc1)C(=O)N[C@H](CO)CC[S+](C)[O-] (stereo partly specified) [FK-33-824]    99.4
C[C@H]1C[C@H]2[C@@H]3CCC4=CC(=O)C=C[C@]4(C)[C@@]3(Cl)[C@@H](O)C[C@]2(C)[C@@]1(O)C(=O)CO [beclomethasone]    103
CC(C)(C)c1ccc(C(=O)Nc2cn3cc(-n4ccnc4)ccc3n2)cc1 [TC-ASK-10]    105
CCCN(CCC)C(=O)Cc1c(-c2ccc(Cl)cc2)nc2ccc(Cl)cn12 [alpidem]    96.2
O=C(Nc1ccccc1C(=O)Nc1ccc(CCO)cc1)c1ccc([N+](=O)[O-])cc1 [KS-176]    98.1
OC[C@H]1O[C@@H](n2cnc3c(NC4CCCC4)nc(Cl)nc32)[C@H](O)[C@@H]1O [2-chloro-N6-cyclopentyladenosine]    104

// next item, cell viability requested
Q: What value of cell viability on Calu-3 does Cc1cccc(C)c1NC(=O)CC12CCCN1CCC2 [pilsicainide] have?
Result: 87.8

----------
Each item that follows carries a reported cell viability.
- Test system: Vero E6
- PROCEDURE SUMMARY: cell viability relative to DMSO; higher = less toxic
- CONDITIONS: 72 h; 10 nM
Unit % implied. Number only.

A selection of reference data follows.
OC(CCN1CCCCC1)(c1ccccc1)C1CCCCC1 (centres undefined)    106
O=C(O)CCc1ccc(NCc2cccc3c2CCCN3CCOc2ccccc2)cc1F    98.2
NC(=O)CN1CC[C@@H](NC(=O)[C@@H]2CCCN2)C1=O    97.8

// next item, cell viability requested
Q: Give its cell viability value. Item: "Cc1cc(-c2nncc3c(C(C)(C)C)c(OCc4ncnn4C)nn23)no1"
Result: 102

----------
Each item that follows carries a reported cell viability.
- Tested on: Calu-3
- PROCEDURE SUMMARY: cell viability relative to DMSO; higher = less toxic
- CONDITIONS: 72 h; 1000 nM
Unit % implied. Number only.

A selection of reference data follows.
CC(C)(C)C(=O)OCOC(=O)[C@@H]1N2C(=O)[C@@H](/N=C/N3CCCCCC3)[C@H]2SC1(C)C    94.9
CN(C)C(=N)NC(=N)N    101
NS(=O)(=O)c1cccc2c1c([N+](=O)[O-])cc1nc(O)c(O)nc12    93.9
O=S(=O)(O)c1ccc2[nH]c(-c3ccccc3)nc2c1    105
C[N+](C)(C)CC(=O)O    91.4

Q: Give its cell viability value. Item: "COc1cc(/C=C2\CCC/C(=C\c3ccc(O)c(OC)c3)C2=O)ccc1O"
Result: 98.9

Q: Give its cell viability value. Item: "O=C(Nc1ccccc1)Nc1ccc(-c2ccc(C(=O)[C@@H]3CCC[C@@H]3C(=O)O)cc2)cc1"
Result: 98.2

----------
- System: Calu-3
- PROCEDURE SUMMARY: cell viability relative to DMSO; higher = less toxic
- CONDITIONS: 72 h; 1000 nM
MEASUREMENT TYPE: cell viability (%)
Unit % implied. Number only.

A selection of reference data follows.
NC(=O)CCCCn1ccc(/N=C(\N)NCC(F)(F)F)n1    99.4
COc1ccc([C@@H]2CC(=O)c3c(O)cc(O[C@@H]4O[C@H](CO)[C@@H](O)[C@H](O)[C@H]4O[C@@H]4O[C@@H](C)[C@H](O)[C@@H](O)[C@H]4O)cc3O2)cc1O [neohesperidin]    101
CNC(=S)C1(c2ccccn2)CCCS1 (stereo not drawn) [picartamide]    106
NC(=O)CC[C@H](NC(=O)Cc1ccccc1)C(=O)O [phenylacetylglutamine]    95.8
CNCCCC1(c2ccccc2)OC(C)(C)c2ccccc21 (stereo not drawn) [talopram]    96.3

Q: Give its cell viability value. Item: NC(=O)NO [hydroxyurea]
Result: 103

Q: Give its cell viability value. Item: CC[N+](C)(CC)CCOC(=O)C1c2ccccc2Oc2ccccc21 [methantheline]
Result: 106

Q: Give its cell viability value. Item: CCCN(CCC)C(=O)Cc1c(-c2ccc(Cl)cc2)nc2ccc(Cl)cn12 [alpidem]
Result: 98.9

----------
- System: HepG2
- PROCEDURE SUMMARY: relative viability EC50 (midpoint between 100% and the lowest measured viability); higher = less toxic
- CONDITIONS: 72 h
MEASUREMENT TYPE: relative viability EC50

Q: Give its relative viability EC50 value. Item: O=S(=O)(O)c1ccc2[nH]c(-c3ccccc3)nc2c1 [phenylbenzimidazole-sulfonic-acid]
Result: > 10 µM

Q: Give its relative viability EC50 value. Item: N=C(N)NCCC[C@H](NC(=O)[C@@H]1CCCN1C(=O)[C@@H]1CSSC[C@H](N)C(=O)N[C@@H](Cc2ccc(O)cc2)C(=O)N[C@@H](Cc2ccccc2)C(=O)N[C@@H](CCC(N)=O)C(=O)N[C@@H](CC(N)=O)C(=O)N1)C(=O)NCC(N)=O [vasopressin]
Result: > 10 µM

Q: Give its relative viability EC50 value. Item: CN(C)c1ccc2c(c1)Sc1cc(N(C)C)ccc1N2 [leucomethylene-blue]
Result: 1.53 µM

Q: Give its relative viability EC50 value. Item: C[N+]1([O-])[C@@H]2C[C@@H](OC(=O)[C@H](CO)c3ccccc3)C[C@H]1[C@@H]1O[C@@H]12 (some centres undefined) [scopolamine-N-oxide]
Result: > 10 µM

Q: Give its relative viability EC50 value. Item: CCN(CC)C(=O)c1ccc(C2=CC3(CCNCC3)Oc3cccc(O)c32)cc1 [ADL5859]
Result: > 10 µM

Q: Give its relative viability EC50 value. Item: N[C@@H](C(=O)O)c1ccc(C(=O)O)c(C(=O)O)c1 (racemic) [3,4-DCPG-(+/-)]
Result: > 10 µM

Q: Give its relative viability EC50 value. Item: O=C(O)c1ccc(NC(=O)[C@H](Cc2ccc(O)cc2)NC(=O)c2ccccc2)cc1 [bentiromide]
Result: > 10 µM

Q: Give its relative viability EC50 value. Item: "Nc1c(S(=O)(=O)O)cc(Nc2cccc3ccccc23)c2c1C(=O)c1ccccc1C2=O"
Result: > 10 µM

Q: Give its relative viability EC50 value. Item: O=c1c(-n2ccnn2)c[nH]n1-c1cc(N2CCOCC2)ncn1 [molidustat]
Result: > 10 µM

Q: Give its relative viability EC50 value. Item: C[C@H](CCC(=O)O)[C@H]1CC[C@H]2[C@@H]3[C@@H](O)C[C@@H]4C[C@H](O)CC[C@]4(C)[C@H]3CC[C@]12C [ursodiol]
Result: > 10 µM

Q: Give its relative viability EC50 value. Item: CCC(CC)n1ccc2c(C(=O)NCc3c(C)cc(C)[nH]c3=O)cc(C#N)cc21 [EI1]
Result: > 10 µM

Q: Give its relative viability EC50 value. Item: CN1CCN(C(=O)C2C(C(=O)O)[C@H]3CC[C@@H]2O3)CC1 (some centres undefined) [LB-100]
Result: > 10 µM

Q: Give its relative viability EC50 value. Item: CO[C@]12C[C@@H](COC(=O)c3cncc(Br)c3)CN(C)[C@@H]1Cc1cn(C)c3cccc2c13 [nicergoline]
Result: > 10 µM

Q: Give its relative viability EC50 value. Item: "CS(=O)(=O)CCNCc1nc(-c2ccc3ncnc(Nc4ccc(OCc5cccc(F)c5)c(Cl)c4)c3c2)cs1"
Result: > 10 µM

Q: Give its relative viability EC50 value. Item: CC(C)(C)C(=O)C(Oc1ccc(Cl)cc1)n1ccnc1 (centres undefined) [climbazole]
Result: > 10 µM

Q: Give its relative viability EC50 value. Item: CS(=O)(=O)c1ccc(-c2cnc(NCc3ccco3)n3cnnc23)cc1 [EED226]
Result: > 10 µM
